- target: HDAC2 (Homo sapiens, UniProt Q92769)
- Sequence (Q92769 whole entry, canonical isoform): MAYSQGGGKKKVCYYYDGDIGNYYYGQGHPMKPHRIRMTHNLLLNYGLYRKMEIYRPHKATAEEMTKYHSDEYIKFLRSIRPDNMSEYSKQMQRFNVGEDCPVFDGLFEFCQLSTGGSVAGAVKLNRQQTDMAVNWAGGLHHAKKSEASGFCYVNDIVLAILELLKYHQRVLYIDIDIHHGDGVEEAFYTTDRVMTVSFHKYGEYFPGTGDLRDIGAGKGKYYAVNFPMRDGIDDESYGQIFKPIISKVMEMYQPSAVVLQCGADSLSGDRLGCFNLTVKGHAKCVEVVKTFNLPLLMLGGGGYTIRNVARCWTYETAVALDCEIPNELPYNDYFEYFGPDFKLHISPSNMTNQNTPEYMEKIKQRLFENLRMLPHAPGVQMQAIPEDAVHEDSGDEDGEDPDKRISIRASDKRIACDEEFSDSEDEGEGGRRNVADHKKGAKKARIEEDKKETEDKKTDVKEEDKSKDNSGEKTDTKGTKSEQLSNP
- experiment summary: HDAC isoform assay, HDAC2
- measurement context: substrate KI-177; read-out: HDAC2, IC50, ELISA (KI-177)
# note: boundary value 2000 nM maps to False; IC50 below it maps to True

# example entries with known answers
- O=C(CCCCCCNC(=O)c1cn2c3c(cccc13)CCC2)NO: False
- CC(C)(C)OC(=O)N1CCn2cc(C(=O)NCc3ccc(C(=O)NO)cc3)c3cccc(c32)C1: False
- O=C(CCCCCCNC(=O)Nc1cn2c3c(cccc13)CCC2)NO: True

*Q* A record lists O=C(CCCCCNC(=O)C(=O)c1cn2c3c(cccc13)CCC2)NO . Is its IC50 below 2000 nM?
*A* True

*Q* A record lists O=C(CCCCCCNC(=O)C(=O)c1cn2c3c(cccc13)CCC2)NO . Is its IC50 below 2000 nM?
*A* False

*Q* A record lists O=C(NO)c1ccc(CNC(=O)c2cn3c4c(cccc24)CCC3)cc1 . Is its IC50 below 2000 nM?
*A* False

*Q* A record lists O=C(CCCCCNC(=O)Nc1cn2c3c(cccc13)CCC2)NO . Is its IC50 below 2000 nM?
*A* True

*Q* A record lists O=C(CCCCCCNC(=O)c1cc2cccc3c2n1CCC3)NO . Is its IC50 below 2000 nM?
*A* False

*Q* A record lists O=C(CCCNC(=O)C(=O)c1cn2c3c(cccc13)CCC2)NO . Is its IC50 below 2000 nM?
*A* False

*Q* A record lists O=C(CCC1CCN(C(=O)c2cn3c4c(cccc24)CCC3)CC1)NO . Is its IC50 below 2000 nM?
*A* False
